Overview of reported RP-LC retention time across a group of molecules:
Experiment Summary: gradient 5% acetonitrile 3 min, to 50% in 2 min, to 85% in 15 min, held 3 min, 100 µL/min
Applied Conditions: column: Zorbax Extend-C18 2.1 x 50 mm; eluents: water / acetonitrile, 0.1% formic acid
Quantity Measured: RP-LC retention time (s)

>  <Smiles Code>
CN(CC(=O)N1CCN(C2CCCCC2)CC1)S(=O)(=O)c1ccc2c(c1)CCCC(=O)N2

>  <Value Observed>
602

$$$$
>  <Smiles Code>
COc1ccc(NC(=O)Cn2c(N)nc(C)cc2=O)cc1F

>  <Value Observed>
593

$$$$
>  <Smiles Code>
Cc1c(-c2ccnc(N3CCN(Cc4ccccc4)CC3)n2)cnc2nc(-c3ccc(Cl)cc3)nn12

>  <Value Observed>
796

$$$$
>  <Smiles Code>
CCOC(=O)c1ccc(Nc2c(-c3ccc(C)cc3)nc3cnccn23)cc1

>  <Value Observed>
918

$$$$
>  <Smiles Code>
CCc1noc(-c2cccnc2N2CCCN(Cc3cc(F)cc(F)c3)CC2)n1

>  <Value Observed>
673

$$$$

* * *

Overview of reported RP-LC retention time across a group of molecules:
Experiment Summary: gradient 5% acetonitrile 3 min, to 50% in 2 min, to 85% in 15 min, held 3 min, 100 µL/min
Applied Conditions: column: Zorbax Extend-C18 2.1 x 50 mm; eluents: water / acetonitrile, 0.1% formic acid

>  <Molecule>
Cc1cc(C(=O)Nc2nc(-c3ccc(Cl)cc3)c(C)s2)no1

>  <RP-LC retention time [s]>
1110

$$$$
>  <Molecule>
COc1ccc(-c2noc(-c3ccc(N4CCN(c5ccccn5)CC4)nc3)n2)cc1

>  <RP-LC retention time [s]>
764

$$$$
>  <Molecule>
CN1CCCn2cc(S(=O)(=O)Nc3ccc(Cl)cc3)cc2C1=O

>  <RP-LC retention time [s]>
714

$$$$
>  <Molecule>
c1ccc(-n2nnnc2SCCNCc2ccc3c(c2)OCCO3)cc1

>  <RP-LC retention time [s]>
634

$$$$
>  <Molecule>
COc1ccc(OC)c(NC(=O)N(C)CCc2noc(COc3ccc(Cl)cc3)n2)c1

>  <RP-LC retention time [s]>
1000

$$$$
>  <Molecule>
Cc1cc2c(cc1S(=O)(=O)N1CCCC1C(=O)Nc1ccc(Cl)cc1F)OC(C)C(=O)N2 (stereo not given)

>  <RP-LC retention time [s]>
884

$$$$
>  <Molecule>
CCOc1ccc(-n2ccn3cc(-c4ccc(C)c(C)c4)nc3c2=O)cc1

>  <RP-LC retention time [s]>
938

$$$$
>  <Molecule>
CC(Oc1ccccc1)c1nc(-c2ccc3nnn(C)c3c2)no1 (stereo not given)

>  <RP-LC retention time [s]>
1060

$$$$
>  <Molecule>
CN(C)c1ccc(-c2nc3cnccn3c2Nc2cccc(C(=O)O)c2)cc1

>  <RP-LC retention time [s]>
655

$$$$
>  <Molecule>
Cc1cccc(-c2noc(Cn3c(=O)n(Cc4ccccc4Cl)c(=O)c4sccc43)n2)c1

>  <RP-LC retention time [s]>
1150

$$$$
>  <Molecule>
C#CCOCC1CCN(C(=O)CSC2CCCC2)CC1

>  <RP-LC retention time [s]>
852

$$$$
>  <Molecule>
CCC(=O)N1CCc2cc(N3CC(C(=O)Nc4ccc(SC)cc4)CC3=O)ccc21 (stereo not given)

>  <RP-LC retention time [s]>
789

$$$$
>  <Molecule>
CCN1CCn2cc(S(=O)(=O)NCc3ccccc3F)cc2C1=O

>  <RP-LC retention time [s]>
685

$$$$
>  <Molecule>
COc1ccc2c(c1)C1(CCN(S(=O)(=O)c3cccc(C)c3)C1)C(=O)N2 (stereo not given)

>  <RP-LC retention time [s]>
840

$$$$
>  <Molecule>
CCc1nc2cccnc2n1-c1ccc(C(=O)NC)cc1

>  <RP-LC retention time [s]>
659

$$$$
>  <Molecule>
CCC(c1cccs1)N1C(=O)[C@H]2CN(Cc3cccnc3)C[C@H]2C1=O (stereo not given in full)

>  <RP-LC retention time [s]>
653

$$$$
>  <Molecule>
COc1ccc(N2C(=O)CCC(C(=O)NCCCN3CCC(C)CC3)C2c2ccc(F)cc2)cc1 (stereo not given)

>  <RP-LC retention time [s]>
605

$$$$
>  <Molecule>
O=C(Nc1ccc(Cl)cc1)C1CCN(C(=O)c2ncn3c2COC(c2ccccc2)C3)CC1 (stereo not given)

>  <RP-LC retention time [s]>
859

$$$$
>  <Molecule>
Cc1ccc(-c2cn3c(CC(=O)NCc4ccc(F)cc4)csc3n2)cc1C

>  <RP-LC retention time [s]>
843

$$$$
>  <Molecule>
COc1ccc(-c2csc(NC(=O)Cc3csc(-c4ccccc4)n3)n2)cc1

>  <RP-LC retention time [s]>
1090

$$$$
